# measurementTarget: Left-right determination factor 2 (Homo sapiens) (UniProt O00292)
# Sequence (O00292 whole entry, looked up): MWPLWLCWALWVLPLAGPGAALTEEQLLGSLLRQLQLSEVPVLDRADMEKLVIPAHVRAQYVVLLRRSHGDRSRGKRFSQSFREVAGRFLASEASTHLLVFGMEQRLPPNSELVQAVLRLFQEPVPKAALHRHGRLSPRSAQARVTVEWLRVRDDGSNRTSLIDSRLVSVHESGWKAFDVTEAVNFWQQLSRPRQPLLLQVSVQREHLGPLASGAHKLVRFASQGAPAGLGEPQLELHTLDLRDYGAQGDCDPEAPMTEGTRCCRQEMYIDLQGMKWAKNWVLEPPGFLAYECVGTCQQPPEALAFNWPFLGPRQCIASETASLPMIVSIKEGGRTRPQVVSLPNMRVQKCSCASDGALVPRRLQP
# protocolText: small molecules binding LEFTY2 protein – biochemical, small-molecule microarray, 635 nm fluorescence scan, primary screen (AID 1110)
# statedConditions: higher = more signal
Classification field: enter true (1) for composite z-score values not below -0.05, false (0) for values below it.

[Q] hey, is composite z-score for this one >= -0.05? `CCOC(=O)C1=CC[C@@H](c2ccccc2F)N(S(=O)(=O)c2ccc(C)cc2)[C@H]1c1ccccc1`
[A] true (1)

[Q] Next molecule up: `COC(=O)c1c(CC[C@@H](CO)NC(=O)N2CCC[C@H]2Cn2cc(C3(O)CCCCC3)nn2)oc(C(C)=O)c1C(=O)OC`
[A] true (1)

[Q] Next molecule up: `CCOC(=O)C[C@H]1[C@H](OC(=O)c2cc3ccccc3oc2=O)[C@@H](NC(=O)c2ccccc2)c2cc(OCCCO)ccc2N1C(=O)c1ccccc1`
[A] true (1)

[Q] Next molecule up: O=C1C2C=CC(C(O)c3cccc(O)c3)N(Nc3ccc([N+](=O)[O-])cc3)C2C(=O)N1c1ccccc1 (stereo not drawn)
[A] true (1)

[Q] Next molecule up: COC(=O)C1=CC(CCCO)=CC(c2cccs2)N(Cc2cccc(OC(F)(F)F)c2)C=C1C(=O)OC (stereo not drawn)
[A] true (1)

[Q] Next molecule up: `COc1ccc(CCNC(=O)[C@@]2(Cc3ccccc3I)c3ccccc3C(=O)N(C3CCCCC3)[C@H]2c2ccc(CO)cc2)cc1`
[A] false (0)

[Q] Next molecule up: `Cc1ccc(N2C(=O)c3ccccc3[C@@H](C(=O)NCCCN(C)C)[C@@H]2c2ccc(CO)cc2)nc1`
[A] false (0)

[Q] Next molecule up: `CC(C)[Si](C#CCCCC#N)(O[C@H](c1ccccc1)c1cn(Cc2ccccc2)nn1)C(C)C`
[A] true (1)

====

# protocolText: probe aLAP1 signal on lysate-treated microarray – cell lysate, small-molecule microarray, COS7 lysate, primary screen (AID 1124);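 note: lysate comes from COS7 cells expressing LAP1 and is applied at 0.3 µg/mL; score merges spot fluorescence near 667 nm with signal-to-noise over triplicate slides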
# statedConditions: probe aLAP1, fluorescence, higher = more signal
Would you mind telling me the reported composite z-score of each entry?
Just the number, please, no unit after it.

[Q] What value of composite z-score has been reported for the following compound? `NCCCCCNC(=O)[C@H]1C[C@H]2C(=O)N3CCC[C@H]3C(=O)N2[C@H]1c1cccc(OCCO)c1`
[A] 0.466

[Q] Next compound up: CCOc1cc(C(O)C2C=CC3C(=O)NC(=O)C3N2Nc2ccc(Cl)cc2Cl)ccc1O (centres undefined)
[A] -0.587

[Q] Next compound up: `COCCOC(=O)N1C(=O)[C@@]2(c3cc(C#CC4=CCCCC4)ccc31)[C@H](c1ccccc1OCCO)N1[C@H](c3ccccc3)[C@H](c3ccccc3)OC(=O)[C@H]1[C@@H]2C(=O)NC[C@H](O)c1ccccc1`
[A] 0.661

[Q] Next compound up: CCCCCCCCCC(O)C1C=CC2C(=O)N(c3ccccc3)C(=O)C2N1Nc1cc(OC)c(OC)c(OC)c1 (centres undefined)
[A] -0.354

====

# Test system: Inhibin beta A chain (activin A)
# protocolText: small molecules binding activin A – biochemical, small-molecule microarray, 635 nm fluorescence scan, primary screen (AID 1107);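 note: mouse activin A protein probed at 4.33 µg/mL on printed slides; score merges bound-protein fluorescence near 667 nm with spot signal-to-noise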
# statedConditions: INHBA, higher = more signal
Would you mind telling me the reported composite z-score of each entry?
Just the number, please, no unit after it.

[Q] What value of composite z-score has been reported for the following compound? `CCCCCCc1nc(Cc2cc(OC)c(OC)c(OC)c2)cc2c1[Si](C(C)C)(C(C)C)OC2`
[A] 0.881

[Q] Next compound up: `C=CCNC(=O)[C@@H]1[C@H]2C(=O)O[C@H](c3ccccc3)[C@H](c3ccccc3)N2[C@H](c2ccccc2OCCO)[C@@]12C(=O)N(C(=O)OCCOC)c1ccc(C#CC3(O)CCCCCC3)cc12`
[A] 1.13

[Q] Next compound up: CC(C)C(O)C1C=CC2C(=O)N(c3ccccc3)C(=O)C2N1Nc1ccccc1 (configuration not stated)
[A] 0.326

[Q] Next compound up: `COc1ccc([Si](C)(C)[C@H]2[C@H](CC(=O)N(CCO)Cc3ccccc3)O[C@@]3(C(=O)N(C)c4c(Br)cc(C)cc43)[C@@H]2C)cc1`
[A] 0.611

[Q] Next compound up: CC(C)C(CO)N1C(=O)[C@@H]2C3C(=O)OCCC/C=C\[C@H]3OC23C=CCN(Cn2nnc4ccccc42)C(=O)[C@@H]13 (some centres not stated)
[A] 0.223

[Q] Next compound up: `CCOC(=O)C[C@H]1[C@H](OC(=O)c2ccc(C(=O)c3ccccc3)cc2)[C@@H](NC(=O)C2CCCCC2)c2cc(OCCCO)ccc2N1C(=O)c1ccc2ccccc2n1`
[A] 0.456

[Q] Next compound up: CC(CO)N1C(=O)[C@]2(C)C3C(=O)OCCC/C=C\[C@H]3OC23C=CCN(c2ccc(Cl)cc2)C(=O)[C@@H]13 (some centres not stated)
[A] -0.0439

====

# protocolText: binders from COS7 lysate, DM2A8 probe, primary screen, torsin A project, cell lysate, small-molecule microarray, fluorescence 635/667 (AID 1065)
# statedConditions: higher = more signal, COS7 lysate expressing mutant human TOR1A
Classification field: enter class 1 for composite z-score values not below 0.3, class 0 for values below it.

[Q] hey, is composite z-score for this one >= 0.3? `COCCOC(=O)N1C(=O)[C@@]2(c3cc(C#CC4(O)CCCCCC4)ccc31)[C@H](c1ccc(O)cc1)N1[C@H](c3ccccc3)[C@H](c3ccccc3)OC(=O)[C@H]1[C@@H]2C(=O)N1CCN(c2ncccn2)CC1`
[A] class 1

[Q] Next molecule up: CN1C2C=C(CCCO)C(C3C(=O)N(C(N)=O)C(=O)C32)C1C1CC1 (configuration not stated)
[A] class 1

[Q] Next molecule up: `COCC(=C=CC[C@H](O)c1ccc(OCCO)cc1)CCO`
[A] class 1

[Q] Next molecule up: COc1cc2c(cc1O)C(c1ccc(CN3CCCC3)cc1)N(Cc1cc3c(cc1Br)OCO3)CC2 (configuration not stated)
[A] class 0

[Q] Next molecule up: `CCCC[C@@H](O)C1=C(COC)C[C@H]2C(=O)N(C)C(=O)[C@H]2[C@H]1CO`
[A] class 0

[Q] Next molecule up: CCC1=C2CN(Cc3ccccc3)[C@@H](C(=O)Cc3ccccc3)C2C=CCC1 (some centres not stated)
[A] class 0

[Q] Next molecule up: Cc1ccc(NN2C(C(O)c3c(F)cccc3Cl)C=CC3C(=O)N(C4CCCCC4)C(=O)C32)cc1 (configuration not stated)
[A] class 1

[Q] Next molecule up: `CCCCC=C[C@@H](NC(=O)OCc1ccccc1Cl)c1ccccc1`
[A] class 0

[Q] Next molecule up: O=C1CS(=O)(=O)C(c2cccc([N+](=O)[O-])c2)N1c1ccccc1 (configuration not stated)
[A] class 1

[Q] Next molecule up: CS(=O)(=O)CCOC(=O)C1=CC(CCCO)=CC(c2ccc(CN3CCCC3)cc2)N(Cc2sc3ccccc3c2Cl)C=C1C(=O)OCCS(C)(=O)=O (configuration not stated)
[A] class 1

[Q] Next molecule up: `C=CCN1C(=O)[C@]2(CCC(=O)OC(C)(C)C)N=C(c3ccc(OCCCO)cc3)O[C@@H]2c2ccccc21`
[A] class 1

[Q] Next molecule up: `O=C(O)[C@@H]1[C@@H]2C(=O)N(c3ccccc3)C(=O)[C@@H]2C[C@@H]1Sc1ccccc1`
[A] class 0

[Q] Next molecule up: CC(C)(C)OC(=O)CC[C@@]1(C(=O)NCC(O)CO)N=C(c2ccc(OCCCO)cc2)O[C@@H]1c1ccccc1CN=[N+]=[N-] (some centres not stated)
[A] class 1

[Q] Next molecule up: O=C(Cc1ccccc1)[C@H]1C2C=CCCC(c3ccccc3)=C2CN1Cc1ccccc1 (some centres not stated)
[A] class 1

[Q] Next molecule up: `C=C(/C(=C/C[C@H](OC(=O)c1ccncc1)c1ccc(CO)o1)c1cnc2ccccc2c1)C(C)C`
[A] class 0

====

Would you mind telling me the reported composite z-score of each entry?
# measurementTarget: Albumin (Bos taurus)
# protocolText: compounds binding labelled BSA control protein – biochemical, small-molecule microarray, Alexa647 label, 635/667 nm fluorescence, artefact control for SMM control protein annotation, profiling panel (AID 1118);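 note: score merges 667 nm emission intensity and signal-to-noise per printed compound spot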
# statedConditions: BSA-A647 binding, fluorescence 635 nm, higher = more signal
Just the number, please, no unit after it.

[Q] What value of composite z-score has been reported for the following compound? CC(C)C(CO)N1C(=O)[C@@H]2C3C(=O)OCCC/C=C\[C@H]3OC23C=CCN(c2ccc4ccccc4c2)C(=O)[C@@H]13 (some centres undefined)
[A] 0.974

[Q] Next compound up: CC1CC/C=C\[C@H]2OC34C=CCN(Cc5ccccc5)C(=O)[C@H]3N(C(CO)C(C)C)C(=O)[C@@H]4C2C(=O)O1 (some centres undefined)
[A] -1.39

[Q] Next compound up: `CCOC(=O)C1=C[C@@H](c2ccccc2)N(S(=O)(=O)c2ccc(C)cc2)[C@H]1c1ccc(OC)cc1`
[A] 0.72

[Q] Next compound up: `NC(=O)[C@@]1(Cc2ccccc2)COC(c2ccc(OCCCO)cc2)=N1`
[A] 0.456

[Q] Next compound up: C=CCC(OC(C)=O)[C@@H]1[C@@H](N(Cc2ccc(-c3cccc(C(F)(F)F)c3)o2)C(=O)c2ccc(-c3ccccc3)cc2)c2cc(OCCCO)ccc2N1C(=O)Cc1ccc2ccccc2c1 (some centres undefined)
[A] -0.124

[Q] Next compound up: `C=CCNC(=O)[C@@H]1[C@H]2C(=O)O[C@H](c3ccccc3)[C@H](c3ccccc3)N2[C@H](c2ccccc2OCCO)[C@@]12C(=O)Nc1ccc(C#CCC(C(=O)OC)C(=O)OC)cc12`
[A] -0.0735

[Q] Next compound up: `COCCOC(=O)N1C(=O)[C@@]2(c3cc(C#CCNC(N)=O)ccc31)[C@H](C(N)=O)[C@H]1C(=O)O[C@H](c3ccccc3)[C@H](c3ccccc3)N1[C@@H]2c1ccccc1OCCO`
[A] 0.222

[Q] Next compound up: `NC(=O)NCC#Cc1ccc2c(c1)[C@]1(C(=O)N2)[C@H](c2ccccc2OCCO)N2[C@H](c3ccccc3)[C@H](c3ccccc3)OC(=O)[C@H]2[C@@H]1C(=O)O`
[A] 0.276

[Q] Next compound up: `CCCC=C(CCC)[C@@H](NC(=O)c1cccs1)c1ccc(C(=O)OC)cc1`
[A] -0.0481

[Q] Next compound up: `CCCCC(=C=CC[C@H](O)c1ccc(OCCO)cc1)CCO`
[A] 0.837

[Q] Next compound up: O=C1NC(=O)C2C1C=CC(C(O)c1ccco1)N2Nc1ccc(Cl)cc1Cl (centres undefined)
[A] 0.78

[Q] Next compound up: `COc1ccc(C#Cc2ccc3c(c2)[C@]2(C(=O)N3)[C@H](c3ccc(OCCO)cc3)N3[C@H](c4ccccc4)[C@H](c4ccccc4)OC(=O)[C@H]3[C@@H]2C(=O)NC[C@H](O)c2ccccc2)cc1`
[A] 0.615

[Q] Next compound up: `COC(=O)c1c(CC[C@@H](CO)NC(=O)N2CCC[C@H]2Cn2cc(C3(O)CCCCC3)nn2)oc(C(C)=O)c1C(=O)OC`
[A] 0.844

[Q] Next compound up: `NCCCCCCNC(=O)[C@@H]1C[C@@H]2C(=O)N[C@@H](CCCCN)C(=O)N2[C@@H]1c1ccc(O)cc1`
[A] -1.58

[Q] Next compound up: `C=C(/C(=C/C[C@H](OC(C)=O)c1ccc(CO)o1)c1cnc2ccccc2c1)C(C)C`
[A] 0.899

[Q] Next compound up: `CCOC(=O)C[C@H]1[C@H](OC(=O)Cc2ccc3c(c2)OCO3)[C@@H](NC(=O)C2CCCCC2)c2cc(OCCCO)ccc2N1C(=O)c1ccccc1`
[A] 0.869

[Q] Next compound up: `CCCC#C[Si](O[C@H](CC)c1cn([C@H](C)c2ccccc2)nn1)(C(C)C)C(C)C`
[A] 0.468

[Q] Next compound up: CC(CO)N1C(=O)[C@@H]2[C@H]3C(=O)OCC=C[C@H]3OC23C=CCN(Cn2nnc4ccccc42)C(=O)[C@@H]13 (some centres undefined)
[A] -0.779

[Q] Next compound up: `C=CC[C@@]1(C(=O)NCCCOC)N=C(c2ccc(OCCCO)cc2)O[C@@H]1c1ccccc1N=[N+]=[N-]`
[A] 0.896

[Q] Next compound up: `CN(C)C(=O)[C@]1(Cc2ccccc2CN=[N+]=[N-])N=C(c2ccc(OCCCO)cc2)O[C@@H]1c1ccccc1`
[A] 0.349

[Q] Next compound up: `CCOC(=O)C[C@H]1[C@H](OC(=O)Cc2ccc3c(c2)OCO3)[C@@H](NC(=O)c2ccc3ccccc3n2)c2cc(OCCCO)ccc2N1C(=O)c1ccc2ccccc2n1`
[A] 0.208

[Q] Next compound up: C=CCC(OC(C)=O)[C@@H]1[C@@H](N(Cc2ccc(-c3cccc(C(F)(F)F)c3)o2)C(=O)Cc2ccc(OC)cc2)c2cc(OCCCO)ccc2N1C(=O)c1ccc(-c2ccccc2)cc1 (some centres undefined)
[A] 0.0925

[Q] Next compound up: `COc1ccc([Si](C)(C)[C@@H]2[C@@H](CCO)O[C@]3(C(=O)N(Cc4ccccc4)c4ccc(N5CCOC5=O)cc43)[C@H]2C)cc1`
[A] 0.279

[Q] Next compound up: `C=CC[C@]1(C(=O)N2CCOCC2)COC(c2ccc(OCCCO)cc2)=N1`
[A] 1.08

[Q] Next compound up: `COc1ccc(CCNC(=O)[C@@]2(Cc3ccccc3I)c3ccccc3C(=O)N(C3CCCCC3)[C@H]2c2ccc(CO)cc2)cc1`
[A] 0.471

[Q] Next compound up: `CCOC(=O)C=Cc1cccc(C)c1O`
[A] -0.268

[Q] Next compound up: `C=C(COC)C(=O)CC[C@@H](OC(C)=O)c1cccc(OCCO)c1`
[A] -0.693

[Q] Next compound up: `CC(C)NC(=O)[C@@]1(C)c2ccccc2C(=O)N(Cc2ccc(OC(F)(F)F)cc2)[C@H]1c1ccc(CO)cc1`
[A] 0.484

[Q] Next compound up: `COCCCNC(=O)[C@@]1(Sc2ccc(C)cc2)CC(=O)N(C2Cc3ccccc3C2)[C@@H]1c1ccc(CO)cc1`
[A] 0.0753
